// reported MCHC for each item listed
- Organism: Rattus norvegicus
- assay info: Open TG-GATES - Regimen: Daily Repeat
- Format: toxicity, organism-based, Sprague-Dawley
- Design: regimen Daily Repeat, gender Male, age 6 weeks
- condition details: in vivo, po, 0 mg/kg, […], tissue Blood, route gavage, dose level Control, time 14 day
property label: MCHC (%)

# compound, value
data = [
    ("Brc1ccccc1", 34.7),
    ("CNC(=C[N+](=O)[O-])NCCSCc1ccc(CN(C)C)o1", 35.2),
    ("CC(C)NNC(=O)c1ccncc1", 34.4),
    ("COC(=O)C1=C(C)NC(C)=C(C(=O)OC)C1c1ccccc1[N+](=O)[O-]", 33.5),
    ("O=C(OC[C@H]1O[C@@H](OC(=O)c2cc(O)c(O)c(OC(=O)c3cc(O)c(O)c(O)c3)c2)[C@H](OC(=O)c2cc(O)c(O)c(OC(=O)c3cc(O)c(O)c(O)c3)c2)[C@@H](OC(=O)c2cc(O)c(O)c(OC(=O)c3cc(O)c(O)c(O)c3)c2)[C@@H]1OC(=O)c1cc(O)c(O)c(OC(=O)c2cc(O)c(O)c(O)c2)c1)c1cc(O)c(O)c(OC(=O)c2cc(O)c(O)c(O)c2)c1", 33.4),
    ("NC1=NC(=O)C(c2ccccc2)O1 (stereo not drawn)", 35),
    ("Cc1nnc2n1-c1ccc(Cl)cc1C(c1ccccc1Cl)=NC2", 32.8),
    ("CCOc1ccc(NC(C)=O)cc1", 34),
    ("Nc1c2c(nc3ccccc13)CCCC2", 36),
    ("CCCc1cc(=O)[nH]c(=S)[nH]1", 33.4),
    ("CN1C(=O)CCS(=O)(=O)C1c1ccc(Cl)cc1 (stereo not drawn)", 35.3),
    ("CN/C(=N/CCSCc1nc[nH]c1C)NC#N", 33),
    ("CN(C)CCC(c1ccc(Cl)cc1)c1ccccn1 (stereo not drawn)", 32.7),
]

---

- Species on record: Rattus norvegicus
- assay info: Open TG-GATES - Regimen: Single
- Type: toxicity, organism-based, Sprague-Dawley
- Set-up: regimen Single, gender Male, age 6 weeks
- condition details: in vivo, po, 1000 mg/kg, 6 h, tissue Blood, route gavage, dose level High
property label: Fbg (mg/dL)

# compound structure string, property label, unit info, value
measured = [
    ("CN/C(=N/CCSCc1nc[nH]c1C)NC#N", "Fbg", "mg/dL", 227.4),
    ("Cc1nnc2n1-c1ccc(Cl)cc1C(c1ccccc1Cl)=NC2", "Fbg", "mg/dL", 282),
    ("CNC(=C[N+](=O)[O-])NCCSCc1ccc(CN(C)C)o1", "Fbg", "mg/dL", 232.8),
    ("COC(=O)C1=C(C)NC(C)=C(C(=O)OC)C1c1ccccc1[N+](=O)[O-]", "Fbg", "mg/dL", 282.6),
    ("O=C(OC[C@H]1O[C@@H](OC(=O)c2cc(O)c(O)c(OC(=O)c3cc(O)c(O)c(O)c3)c2)[C@H](OC(=O)c2cc(O)c(O)c(OC(=O)c3cc(O)c(O)c(O)c3)c2)[C@@H](OC(=O)c2cc(O)c(O)c(OC(=O)c3cc(O)c(O)c(O)c3)c2)[C@@H]1OC(=O)c1cc(O)c(O)c(OC(=O)c2cc(O)c(O)c(O)c2)c1)c1cc(O)c(O)c(OC(=O)c2cc(O)c(O)c(O)c2)c1", "Fbg", "mg/dL", 211),
]

Entry source: ChEMBL document CHEMBL3885861
